Reference source for all entries: patent US20210356479A1

- test.target: T1, human Kell glycoprotein, K form (KEL1) (human, UniProt P23276 1-732)
- T1 construct: whole, on cells; On human K/K or K+k+ RBCs and on RBCs of K transgenic mice; also called K antigen; K variant
- T1 sequence (looked up): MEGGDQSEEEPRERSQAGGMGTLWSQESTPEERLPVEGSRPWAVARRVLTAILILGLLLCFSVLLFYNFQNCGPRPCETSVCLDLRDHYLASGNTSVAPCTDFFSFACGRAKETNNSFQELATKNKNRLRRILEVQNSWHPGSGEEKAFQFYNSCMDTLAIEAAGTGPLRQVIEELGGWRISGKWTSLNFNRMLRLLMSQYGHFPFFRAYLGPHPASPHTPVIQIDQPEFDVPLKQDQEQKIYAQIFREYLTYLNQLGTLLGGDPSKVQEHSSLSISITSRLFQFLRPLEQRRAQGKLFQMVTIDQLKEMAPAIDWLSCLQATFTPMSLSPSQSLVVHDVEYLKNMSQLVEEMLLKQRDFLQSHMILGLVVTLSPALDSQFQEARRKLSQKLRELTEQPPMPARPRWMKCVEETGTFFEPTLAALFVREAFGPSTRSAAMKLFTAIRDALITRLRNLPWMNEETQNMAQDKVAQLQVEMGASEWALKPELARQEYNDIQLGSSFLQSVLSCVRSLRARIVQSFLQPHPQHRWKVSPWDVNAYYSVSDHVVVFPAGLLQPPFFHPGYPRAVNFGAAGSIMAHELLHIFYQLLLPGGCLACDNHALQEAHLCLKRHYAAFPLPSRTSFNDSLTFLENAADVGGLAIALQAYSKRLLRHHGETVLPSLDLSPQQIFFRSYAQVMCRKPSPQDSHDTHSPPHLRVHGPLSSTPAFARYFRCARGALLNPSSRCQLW
- method.description: flow cytometry on human K+k+ RBCs, detected with polyclonal anti-IgG
quantity: binding result

{"binder": "PUMA 1 human IgG2-02 isoallotype (antibody, Isoallotype named in CLM-00007; not shown: human IgG2 heavy chain constant region, isoallotype IGHG2*02; human kappa light chain constant region (vector pFUSE2-CLIg-hk)) heavy: EVQLQQSGPELVKPGASVKMSCKASGYTFTDYYMKWVKQSHGKSLEWIGDLNPNNGDTFYNQKFKGKATLTVDKSSSTAYIQLNSLTSEDSAVYYCAREAGSSFGSSCNYWGQGTTLTVS light: SVVMTQTPKFLLVSAGDRVTITCKASQTVSKDVAWYQQQPGQSPKLLIYYASNRYTGVPDRFTGSGYGTDFTFTISTVQAEDLAVYFCQQDYSSPYTFGGGTKLEIK", "obs.value": "binds"}
{"binder": "PUMA 1 human IgG4-02 isoallotype (antibody, not shown: human IgG4 heavy chain constant region, isoallotype IGHG4*02; human kappa light chain constant region (vector pFUSE2-CLIg-hk)) heavy: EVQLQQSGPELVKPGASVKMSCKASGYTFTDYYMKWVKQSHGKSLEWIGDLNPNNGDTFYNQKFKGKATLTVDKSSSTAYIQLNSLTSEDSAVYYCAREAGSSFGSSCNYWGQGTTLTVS light: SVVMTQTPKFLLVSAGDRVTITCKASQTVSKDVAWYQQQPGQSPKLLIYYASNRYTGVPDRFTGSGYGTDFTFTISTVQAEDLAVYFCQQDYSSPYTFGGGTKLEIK", "obs.value": "binds"}
